Attribution: the EternaBench riboswitch data

- System: MS2 coat protein
- ASSAY REMARKS: apparent Kd, MS2 coat protein; higher = weaker binding; RNA-MaP array; FMN 200 µM where present
- RECORDED CONDITIONS: ligand present: flavin mononucleotide; designed as: OFF switch for flavin mononucleotide
REPORTED PROPERTY: apparent Kd (nM)

1) GUGUACAGAGGAUAUACAUAAGCUAGGAAACUAGCUACUUCACAUGAGGAUCACCCAUGUAGAAGGCUGUACAC    16.3
2) GGCGGGCGGGAGGAUAUUCGGGCUGUUUGGCUUGGAGAAGGCUCGACAUGAGGAUCACCCAUGUUUGGGUCGCC    27
3) UUAAGGGACUGAGGAUAUACAUGAAUUAUGUUUGUAGAAGGCAGAUUGUUAGUUUAUUCACUAUACAUGAGGAUCACCCAUGUU    20.6
4) CUUUUGUGAGGAUAUCAGUAGUAGAACAAUAGUACUACUACUGAGAAGGCACAUGAGGAUCACCCAUGUUCCUC    455
5) GCAGCCGAUGCAGGAUAUCAGCACGUGUAGUGCUGAGAAGGGCACAUGAGGAUCACCCAUGUGAUCAAUUAAUAUCGAUGCUGC    14.3
6) AAACCGCAAGGAUAUUGUGGCGCUGACAUGAGGAUCACCCAUGUGGUGCUAGUCCCGCUGCGAGAAGGUGUGUAAA    26.8
7) GAUUAACAUGAGGAUCACCCAUGUGAGGAUAUGGACUGGCUCACUUUCCGAUUCCCGUCUAGAAGGCGCAUCUU    38.3
8) AAACAUGUCCGAGGAUAUCUGGAAACAUUUUCAAGAGAAGGCGGACAUGAGGAUCACCCAUGUCUCUCCUCAUCAAGUCCAAGU    46.2
9) UACAUGAGGAUCACCCAUGUUUUGUCGUGUAUGGUAUUUAUCUAGGAUAUCAAUGUAUUUAUGUAUGAGAAGGAGAAUAUUAAU    37.3
10) UAUGUGUCAGGAUAUUAGUAGUAAAUAAAUAAAAUUAUUACUGAGAAGGGACAUGAGGAUCACCCAUGUGCCUC    354
11) UGGUUUAGUGUUAGGAUAUAAUCCGAAGUCAGCGAUUAGAAGGAACAUGAGGAUCACCCAUGUUUUAGAUAACC    16.9
12) CGUGCGUAUGUGAGGAUAUGCUGGUCCUUGGAUCGGCAGAAGGCACAUGAGGAUCACCCAUGUGGUGUCGUCCA    64.5
13) GUCCUACAUGAGGAUCACCCAUGUCAGGAUAUGUAGCGUCCGGGCCAUAAGGCUCGGAGCAGAAGGGACAGGUG    18.2
14) AAACAUGUCCGAGGAUAUCUGGAAACAUUUUCAAGAGAAGGCGGACAUGAGGAUCACCCAUGUCUCUCCUCAUCCACUACAAAU    60.6
15) GCACUUUUAUUUGAACCGUUUCGAACAUGAGGAUCACCCAUGUAGGAUAUGCUAAAAGUUGUGAUGCAGAAGGACAUUAAGUGC    7.5
16) AUCAGCUCGUCAGGAUAUACGUCACUGCUUCGGCAGUGUGGUAAGAUCACAUGAGGAUCACCCAUGUAGAAGGGACGAGCUGAU    754
17) UUGCAGUCAUCAGGAUAUAGUAUUACGGCCAUUUAUAUUUUCAUACAUGAGGAUCACCCAUGUCGCUAGAAGGGAUUAUCGAUU    43
18) UUGCGACAUGAGGAUCACCCAUGUCAGGAUAUAUUGUAGAAACUGGUUGCGACCAGGCGUAGAAGGGACAUGGC    37.7
19) GGUCGCAAGUAAGGAUAUGCCUAGGAAACCUAGGCAGAAGGUACAUGAGGAUCACCCAUGUUAACGCAAAGCGAAUAAGCGACC    21.5
20) GCAGACGUAGUGAGGAUAUGCUCUACCUCGGUAGAGCAGAAGGCACAUGAGGAUCACCCAUGUGAUUUCUCUGC    421
21) GGAUCAUGAGGAUAUCGAGGUUAGUACAUGAGGAUCACCCAUGUUAUCCAGGUCUCGUUUCGAGAAGGCAUGAUCC    29.9
22) AUCAGCACGUGAGGAUAUGCGUCACUGCGUCAGCAGUGCGGUAAGAUCACAUGAGGAUCACCCAUGUAGAAGGCACGAGCUGAU    49.8
23) UUCUUUACCUAGGAUAUCUUCGGUACGGUCCGGAGAGAAGGAGGUACAUGAGGAUCACCCAUGUCCCUCUGAAA    13.6
24) GUAAAGUGAGGAUAUGGUGAGUAGUGCCUGAGCGCUGCUCACCAGAAGGCACAUGAGGAUCACCCAUGUAUAGC    27.1
25) GCCUCAUAGUAGAAGGGACUUCGGCUGUUAAGCAUCAUCUCCAUAUCACAUGAGGAUCACCCAUGUCAGGAUAUACUAAGAGGC    14.4
26) CCAUGCGGAUGAGGAUAUUCAUUCAUGAGGAUAGAAGAAGGCGUACAUGAGGAUCACCCAUGUAUACACAUGAGGAUCCCUUAC    372
27) CCGGGCUAGGAGAAGGGCUAGAGUGUGAUAUAUUUGCCCGCGAGCACAUGAGGAUCACCCAUGUAGCAGGAUAUCCAAGCCGGU    21.2
28) CUAUUUAAUGCCUCAUGUACAUGAGGAUCACCCAUGUUAACUUAGGAUAUAUUUAUAUUGAUAGAGUAGAAGGAAGUACUAUUU    27.3
29) UAGAAGUCAGGAUAUCCAGCUCGUCACUUGCGUGAUGAGUUGGAGAAGGGACAUGAGGAUCACCCAUGUAAAGA    57.8

* * *

Readings of apparent Kd for the listed sequences
- Test system: MS2 coat protein
- ASSAY REMARKS: apparent Kd, MS2 coat protein; higher = weaker binding; RNA-MaP array; FMN 200 µM where present
- RECORDED CONDITIONS: designed as: ON switch for flavin mononucleotide; no ligand
REPORTED PROPERTY: apparent Kd (nM)

1. CUGGUUGUCGUAGGAUAUGUAGGAUAUUCCUACAUGAGGAUCACCCAUGUUCGCAUGGAAGAAGGACAGAAGGACGAUGACCAA    1160
2. GGAGCUACAACCGACGGAUAGAUGCAGGAUAUGCUCACAUGAGGAUCACCCAUGUGCUGAAACUGGCAGAAGGGUAUCACCGCC    7.83
3. GAAGCAUGCAAUAACAUGAGGAUCACCCAUGUGAAAACACGUGAGGAUAUUGAUCUGAAGAAGAUCGAGAAGGCACCGUGCUAA    13.4
4. CUUUAACUACAAUUACAUGAGGAUCACCCAUGUUUUGGGAUGCAGGAUAUGUGGUAUAUUAAUUAACAGAAGGGCAAUAAUUAA    40.7
5. GUGCCUAACUAGAAGGCCGAUAGCAAAGCUAUCGGAGGAUAUGGGUUCCGGAAACGGACAUGAGGAUCACCCAUGUGGCACAAA    86.5
6. GGACGUGACAUUAACAUGAGGAUCACCCAUGUCAAAAGACAUGAGGAUAUGGAUCCGAAAAGGAUCCAGAAGGCAUGCACGUCC    587
7. CUCAUCCUUACAGGCUGAGACAUGAGGAUCACCCAUGUAGGGAGAAGGGAGUUGGGCAUCUUGACUCAGGAUAUCCCGAAAGAC    733
8. CCAGAGAUAUGAGGAUAUCGAGUGGAUAACACUCGAGAAGGCAUGUGAAAACAUGAGGAUCACCCAUGUAUGAUCUACUCUGGA    50.6
9. GAGCGGCGUACAGGAUAUCCUACAUGAGGAUCACCCAUGUCACAUUUACACGAGAACGUGUACGAGGAGAAGGGUGGGUUCGUG    287
10. GGAUGCCGCUCAGGAUAUGUGGGUUGUCUAGUAUUUAGAUUCCACAUGAGGAUCACCCAUGUAACACAGAAGGGAGAUGGUGAU    214
11. CGCCAUCCCGUUGGCGUGAGGAUACCAGAAGGGACGAUCUCACAUGAGGAUCACCCAUGUUAUAGUCAGGAUAUGGGUUCAUCA    135
12. GACAUGAGGAUCACCCAUGUCCAUGCAAGAGUAGUUGAGACCAGAAGGACCGUGCGGAGCGCAGGGUAGGAUAUGGAGCCCUCA    32.4
13. UUGGGCGUCGUAGGAUAUGUAGGAUAUUCCUACAUGAGGAUCACCCAUGUUGACAUGGAAGAAGGACAGAAGGACGAUGUCCAU    278
14. GCAGCACACAUUAACAUGAGGAUCACCCAUGUCAAAAGACAUGAGGAUAUGCAUCUGAAGAAGAUGCAGAAGGCAUUGUGCUGC    467
15. GCAUACAUUCGAGGAUAUCGGUGAACAAAUUAACGAGAAGGCGAUAUAAUGUUUAAUCUUAUAAACAUGAGGAUCACCCAUGUA    76.9
16. GCCAUCGUAUGAGGAUAUGGCACCGAAACGGUGCCAGAAGGCAUGUCAAUAGACAUGAGGAUCACCCAUGUGUUAUCGAUGGCC    84.9
17. UUCUAGCUCACAGGAUAUGGGUAUCGACGAUGCCCAGAAGGGUGAUUUGGCACAUGAGGAUCACCCAUGUGGGCGCUUGAAUAU    45
18. UCCACUGCUGAGAAGGGAUACGUCUGGUUCGCAUCAGGAUAUCGAUACAGUGCAGCAUGAGGACAUGAGGAUCACCCAUGUGUC    21.6
19. CCACGUCACAUUUACAUGAGGAUCACCCAUGUCGAAAGACAUGAGGAUAUGCAUCCUAAUUGGAUGCAGAAGGCAUGGACGUGG    276
20. GGGUACAUCGGAGGAUAUCAUGUAAAUACAUGAGGAUCACCCAUGUCGAUGGUGACAUCGGAGAUUGAGAAGGCCGAUGUACCG    245
21. UACAUUACUUAGAAGGGAUAUAUAUAAUUUUAGUCAGGAUAUAGAUACAGUACAACAUGAGGACAUGAGGAUCACCCAUGUAUU    29.8
22. GGAGCCAGCACCGAGGAUAUUCAUAUUAAAACAUGAGGAUCACCCAUGUAGGCCAGAAGGCCUUGGGAGAAGGCGGACUGGCUCG    206
23. GUAGCUAUCGGAGGAUAUUCAUACCGGAAACGGACAUGAGGAUCACCCAUGUGGCGAAAGCCUUUGGAGAAGGCCGAUAGCUAC    3.56
24. GAAUUCGCAUGAGGAUAUGCACUCAUUUCAUGUGCAGAAGGUAUAUCAUUAGACAUGAGGAUCACCCAUGUAUUGGUCAUUAAC    15.2
25. GUCGGAAACGACAAAAGUAUGGAUCCAGAAGGCAUGAUACAUGAGGAUCACCCAUGUCUAAGACAUGAGGAUAUGGAUCCAUAC    13.7
26. UGGGACGUGGGAGGAUAUCGGCCUGUAACAGUACGAGAAGGCCCAGUCCAAUAACAGACGGACAUGAGGAUCACCCAUGUCUCA    43.2
27. AAGAAAGAAACAUAGGAUAUCAAGGAUAUAACAUGAGGAUCACCCAUGUAAAUACGAAAGUAUAAUGAGAAGGAUGGAUGAUCUUC    86.1
28. UGGUACAACGGAGGAUAUCAUGUAAAUACAUGAGGAUCACCCAUGUCGUACGAGAGUACGGAGAUUGAGAAGGCCGUUGUACCU    25.7
